Target: T1, Fusion protein of extracellular domain of human TIGIT and His-tag (human TIGIT ECD-his) (human)
T1 chain: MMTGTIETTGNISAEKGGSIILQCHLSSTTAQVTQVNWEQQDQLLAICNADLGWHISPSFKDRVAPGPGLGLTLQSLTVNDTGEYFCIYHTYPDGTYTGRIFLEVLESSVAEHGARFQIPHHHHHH
Assay: BIAcore; KD ratio to TIGIT-CHI-006
The label depends only on Fold change vs chimeric antibodies (KD): true (1) if it is at least 70 fold, false (0) if it is smaller.

binder="TIGIT-006-H1L2 (antibody, V domains shown, Humanized anti-TIGIT antibody) VH: EVQLQESGPGLVKPSETLSLTCAVSGYSITSDYWNWIRQPPGKGLEWIGYISYSGRTYYNPSLKSRVTISRDTSKNQFSLKLSSVTAADTAVYYCARGDYSNYGGAMYDWGQGTTVTVSS VL: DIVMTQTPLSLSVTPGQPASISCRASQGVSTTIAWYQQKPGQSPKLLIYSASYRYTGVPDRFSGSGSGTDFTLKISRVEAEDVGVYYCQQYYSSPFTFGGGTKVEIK" group_label="true (1)"
binder="TIGIT-006-H1L1 (antibody, V domains shown, Humanized anti-TIGIT antibody) VH: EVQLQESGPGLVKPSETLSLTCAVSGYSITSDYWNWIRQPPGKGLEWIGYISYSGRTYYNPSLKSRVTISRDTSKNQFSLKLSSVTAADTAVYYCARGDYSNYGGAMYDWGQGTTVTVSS VL: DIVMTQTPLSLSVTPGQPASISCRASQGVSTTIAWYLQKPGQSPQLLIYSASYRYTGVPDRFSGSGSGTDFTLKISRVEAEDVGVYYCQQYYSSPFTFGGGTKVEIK" group_label="true (1)"
binder="TIGIT-006-H2L3 (antibody, V domains shown, Humanized anti-TIGIT antibody) VH: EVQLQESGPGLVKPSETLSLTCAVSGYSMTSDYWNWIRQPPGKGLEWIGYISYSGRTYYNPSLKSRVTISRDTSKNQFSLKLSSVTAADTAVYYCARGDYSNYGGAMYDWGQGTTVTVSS VL: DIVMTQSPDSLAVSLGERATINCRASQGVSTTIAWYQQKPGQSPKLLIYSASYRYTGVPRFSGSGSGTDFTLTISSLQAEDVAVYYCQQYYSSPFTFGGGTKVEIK" group_label="false (0)"
binder="TIGIT-006-H5L1 (antibody, V domains shown, Humanized anti-TIGIT antibody) VH: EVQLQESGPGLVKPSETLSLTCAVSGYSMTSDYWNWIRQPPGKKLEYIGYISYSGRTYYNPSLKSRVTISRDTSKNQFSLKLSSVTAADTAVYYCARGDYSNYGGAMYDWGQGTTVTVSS VL: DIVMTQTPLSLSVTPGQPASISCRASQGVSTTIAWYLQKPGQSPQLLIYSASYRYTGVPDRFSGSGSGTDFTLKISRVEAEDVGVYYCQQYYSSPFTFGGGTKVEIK" group_label="false (0)"
binder="TIGIT-006-H5L2 (antibody, V domains shown, Humanized anti-TIGIT antibody) VH: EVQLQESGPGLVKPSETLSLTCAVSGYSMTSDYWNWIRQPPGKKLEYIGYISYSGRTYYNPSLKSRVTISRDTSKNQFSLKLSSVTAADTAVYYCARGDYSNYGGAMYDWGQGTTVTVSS VL: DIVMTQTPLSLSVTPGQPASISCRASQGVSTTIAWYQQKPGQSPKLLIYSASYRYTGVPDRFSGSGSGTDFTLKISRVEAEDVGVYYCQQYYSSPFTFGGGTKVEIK" group_label="false (0)"
binder="TIGIT-006-H1L3 (antibody, V domains shown, Humanized anti-TIGIT antibody) VH: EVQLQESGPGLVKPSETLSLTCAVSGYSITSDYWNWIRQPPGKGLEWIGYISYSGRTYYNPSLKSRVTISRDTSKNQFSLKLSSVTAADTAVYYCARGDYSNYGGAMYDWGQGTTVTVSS VL: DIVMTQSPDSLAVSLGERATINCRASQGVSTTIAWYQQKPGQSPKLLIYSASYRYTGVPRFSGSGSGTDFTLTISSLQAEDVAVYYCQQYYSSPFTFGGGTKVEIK" group_label="false (0)"

Numbers sourced from patent US20240343803A1.
